Data provenance is patent US9573953B2.

# protocolText: Pharmacokinetic profiles in mice
# Type: in vivo
# experimentalSetup: plasma; Mouse, iv dosing, 1 mg/kg
AUC(0-t) values by entry
propertyName: AUC(0-t) (ng·h/mL)

>>> print(df.to_string())
                                   compound  propertyname  measurednumber
0  COc1ncc(-c2ccn3ncc(C#N)c3c2)cc1NS(=O)(=O)c1ccc(F)cc1F [Ex. 3]      AUC(0-t)           57100
1  COc1ncc(-c2ccn3ncc(C#CCO)c3c2)cc1NS(=O)(=O)c1ccc(F)cc1F [Ex. 4]      AUC(0-t)            5810

* * *

pIC50: −log10 of the molar value.
Quick record of pIC50 values for mTOR (h) (Homo sapiens, UniProt P42345).
propertyName: pIC50

>>> df
                                   compound                                 testedon  measurednumber
0  COc1ncc(-c2ccn3ncc(C#N)c3c2)cc1NS(=O)(=O)c1ccc(F)cc1F [Ex. 3]  mTOR (h) (Homo sapiens, UniProt P42345)            8.40
1  COc1ncc(-c2ccn3ncc(C#N)c3n2)cc1NS(=O)(=O)c1ccc(F)cc1F [Ex. 2]  mTOR (h) (Homo sapiens, UniProt P42345)            8.40
2  COc1ncc(-c2ccn3ncc(C#CCO)c3c2)cc1NS(=O)(=O)c1ccc(F)cc1F [Ex. 4]  mTOR (h) (Homo sapiens, UniProt P42345)            8.40
3  COc1ncc(-c2ccn3ncc(C#CC(C)O)c3n2)cc1NS(=O)(=O)c1ccc(F)cc1F (stereo not shown) [Ex. 5]  mTOR (h) (Homo sapiens, UniProt P42345)            8.15

* * *

IC50 values by entry
# testedOn: PI3K p110β/p85α (h) (Homo sapiens)
# Sequence (P42338 whole entry): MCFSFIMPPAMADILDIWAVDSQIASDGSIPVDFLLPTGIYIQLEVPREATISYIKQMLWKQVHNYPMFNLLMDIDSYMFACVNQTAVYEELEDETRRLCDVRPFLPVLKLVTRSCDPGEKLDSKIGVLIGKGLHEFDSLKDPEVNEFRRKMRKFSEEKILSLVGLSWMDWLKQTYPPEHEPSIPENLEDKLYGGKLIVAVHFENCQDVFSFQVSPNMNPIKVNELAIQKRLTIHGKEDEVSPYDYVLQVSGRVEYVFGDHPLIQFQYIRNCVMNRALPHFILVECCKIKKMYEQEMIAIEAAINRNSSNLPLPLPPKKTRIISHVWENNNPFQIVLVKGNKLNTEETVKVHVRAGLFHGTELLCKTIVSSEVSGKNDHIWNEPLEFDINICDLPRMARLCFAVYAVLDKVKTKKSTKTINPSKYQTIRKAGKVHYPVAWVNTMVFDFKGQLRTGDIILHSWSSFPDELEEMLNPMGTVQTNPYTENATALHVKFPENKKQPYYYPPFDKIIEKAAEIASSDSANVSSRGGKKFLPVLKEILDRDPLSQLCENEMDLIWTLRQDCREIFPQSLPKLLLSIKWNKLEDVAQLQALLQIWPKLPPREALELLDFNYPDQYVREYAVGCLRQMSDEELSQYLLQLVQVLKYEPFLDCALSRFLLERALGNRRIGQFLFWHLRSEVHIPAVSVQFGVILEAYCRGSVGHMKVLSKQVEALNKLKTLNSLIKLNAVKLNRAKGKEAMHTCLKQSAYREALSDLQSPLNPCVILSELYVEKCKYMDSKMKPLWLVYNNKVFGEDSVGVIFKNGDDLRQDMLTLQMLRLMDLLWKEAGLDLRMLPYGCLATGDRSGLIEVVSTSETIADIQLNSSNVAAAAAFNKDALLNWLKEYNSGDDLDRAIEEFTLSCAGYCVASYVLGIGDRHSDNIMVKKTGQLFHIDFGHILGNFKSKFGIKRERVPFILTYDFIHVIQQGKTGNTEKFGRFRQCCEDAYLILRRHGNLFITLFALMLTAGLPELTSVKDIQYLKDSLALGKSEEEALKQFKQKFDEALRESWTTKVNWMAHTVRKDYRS
# Sequence (P27986 whole entry partner): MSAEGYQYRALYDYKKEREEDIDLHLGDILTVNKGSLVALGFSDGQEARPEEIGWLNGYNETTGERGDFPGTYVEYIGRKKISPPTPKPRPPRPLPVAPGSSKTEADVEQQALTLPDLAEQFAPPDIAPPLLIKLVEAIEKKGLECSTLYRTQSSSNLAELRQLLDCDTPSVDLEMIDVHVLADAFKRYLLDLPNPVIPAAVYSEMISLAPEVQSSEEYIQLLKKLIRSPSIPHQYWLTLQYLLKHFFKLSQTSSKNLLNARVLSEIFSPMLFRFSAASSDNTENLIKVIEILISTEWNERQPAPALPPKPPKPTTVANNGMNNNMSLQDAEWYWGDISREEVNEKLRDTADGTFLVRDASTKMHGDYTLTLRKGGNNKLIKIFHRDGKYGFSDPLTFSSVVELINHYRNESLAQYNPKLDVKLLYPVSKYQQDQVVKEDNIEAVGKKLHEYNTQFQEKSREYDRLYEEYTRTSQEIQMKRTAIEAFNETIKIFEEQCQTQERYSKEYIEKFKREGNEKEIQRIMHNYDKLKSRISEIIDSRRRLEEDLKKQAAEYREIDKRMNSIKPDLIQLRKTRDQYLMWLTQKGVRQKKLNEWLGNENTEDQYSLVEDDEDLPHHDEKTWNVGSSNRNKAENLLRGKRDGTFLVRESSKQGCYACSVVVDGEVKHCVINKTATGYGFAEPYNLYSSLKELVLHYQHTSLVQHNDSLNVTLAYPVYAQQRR
# protocolText: PI3K p110β/p85α (h) non-radioactive (HTRF) assay
propertyName: IC50 (nM)

                                   compound  readoutunits  measurednumber
0  COc1ncc(-c2ccn3ncc(C#CC(C)O)c3n2)cc1NS(=O)(=O)c1ccc(F)cc1F (centres unmarked)            nM              75
1  COc1ncc(-c2ccn3ncc(C#N)c3c2)cc1NS(=O)(=O)c1ccc(F)cc1F            nM              41
2  COc1ncc(-c2ccn3ncc(C#CCO)c3n2)cc1NS(=O)(=O)c1ccc(F)cc1F            nM              84
3  COc1ncc(-c2ccn3ncc(C#N)c3n2)cc1NS(=O)(=O)c1ccc(F)cc1F            nM              45
4  COc1ncc(-c2ccn3ncc(C#CCO)c3c2)cc1NS(=O)(=O)c1ccc(F)cc1F            nM              22

* * *

Cl/F values by entry
# protocolText: Pharmacokinetic profiles in rats
# Assay type: in vivo
# experimentalSetup: iv dosing, 1 mg/kg
propertyName: Cl/F (mL/min/kg)

In [3]: df
Out[3]:
                                     smiles  measurednumber
0  COc1ncc(-c2ccn3ncc(C#N)c3c2)cc1NS(=O)(=O)CC(F)(F)F            12.7
1  COc1ncc(-c2ccn3ncc(C#CC(C)(C)O)c3n2)cc1NS(=O)(=O)c1ccc(F)cc1F            0.33
2  CC#Cc1cnn2ccc(-c3cnc(OC)c(NS(=O)(=O)c4ccc(F)cc4F)c3)nc12            3.17
3  COc1ncc(-c2ccn3ncc(C#CC(C)(C)O)c3c2)cc1NS(=O)(=O)c1ccc(F)cc1F            0.33

* * *

# protocolText: Pharmacokinetic profiles in rats
# Format: in vivo
# experimentalSetup: iv dose 2 mg/kg, oral dose generally 5 or 10 mg/kg
F values by entry
propertyName: F (%)

                                   compound  propertyname  measurednumber
0  COc1ncc(-c2ccn3ncc(C#N)c3c2)cc1NS(=O)(=O)c1ccc(F)cc1F [Ex. 3]             F           94.75
1  COc1ncc(-c2ccn3ncc(C#N)c3n2)cc1NS(=O)(=O)c1ccc(F)cc1F [Ex. 2]             F           69.48
2  COc1ncc(-c2ccn3ncc(C#CCO)c3c2)cc1NS(=O)(=O)c1ccc(F)cc1F [Ex. 4]             F           91.75
3  COc1ncc(-c2ccn3ncc(C#CCO)c3n2)cc1NS(=O)(=O)c1ccc(F)cc1F [Ex. 1]             F          102.00
4  COc1ncc(-c2ccn3ncc(C#CC(C)O)c3n2)cc1NS(=O)(=O)c1ccc(F)cc1F (centres unmarked) [Ex. 5]             F           96.20

* * *

# protocolText: Pharmacokinetic profiles in rats
# Assay type: in vivo
# experimentalSetup: rat, plasma, iv dosing, 2 mg/kg, read-out: Vss
propertyName: Vd (L/kg)

                                   molecule  propertyname  measurednumber
0  COc1ncc(-c2ccn3ncc(C#CCO)c3n2)cc1NS(=O)(=O)c1ccc(F)cc1F            Vd            0.32
1  COc1ncc(-c2ccn3ncc(C#CC(C)O)c3n2)cc1NS(=O)(=O)c1ccc(F)cc1F (centres unmarked)            Vd             0.2
2  COc1ncc(-c2ccn3ncc(C#CCO)c3c2)cc1NS(=O)(=O)c1ccc(F)cc1F            Vd            0.48
3  COc1ncc(-c2ccn3ncc(C#N)c3c2)cc1NS(=O)(=O)c1ccc(F)cc1F            Vd            0.85
4  COc1ncc(-c2ccn3ncc(C#N)c3n2)cc1NS(=O)(=O)c1ccc(F)cc1F            Vd             0.8

* * *

# protocolText: Pharmacokinetic profiles in mice
# Format: in vivo
# experimentalSetup: plasma; Mouse, iv dosing, 1 mg/kg
propertyName: half-life (h)

                                     smiles  measurednumber
0  COc1ncc(-c2ccn3ncc(C#CCO)c3c2)cc1NS(=O)(=O)c1ccc(F)cc1F            1.11
1  COc1ncc(-c2ccn3ncc(C#N)c3c2)cc1NS(=O)(=O)c1ccc(F)cc1F            5.45

* * *

# protocolText: Pharmacokinetic profiles in monkeys
# Type: in vivo
# experimentalSetup: plasma; Monkey, iv dosing, 1 mg/kg; read-out: Vss
Vd values by entry
propertyName: Vd

>>> print(df.to_string())
                                     smiles  propertyname     result
0  COc1ncc(-c2ccn3ncc(C#CCO)c3c2)cc1NS(=O)(=O)c1ccc(F)cc1F            Vd  0.42 L/kg
1  COc1ncc(-c2ccn3ncc(C#N)c3c2)cc1NS(=O)(=O)c1ccc(F)cc1F            Vd  0.92 L/kg

* * *

# protocolText: Compound stability in human liver microsomes
# Format: in vitro ADME
# experimentalSetup: pH 7.4; human liver microsomes 0.5 mg protein/mL, compound 5 μM, NADPH, 37° C.
# Description: Human or rat liver microsomes incubations were conducted in duplicate in polypropylene tubes. […] The concentrations of compounds in the incubation mixtures of human or rat liver microsomes were determined by a LC/MS/MS method. The ranges of the linearity in the concentration range were determined for each tested compounds. […]
propertyName: half-life at 5 μM (h)

>>> print(df.to_string())
                                   compound  measurednumber
0  COc1ncc(-c2ccn3ncc(C#CC(C)(C)O)c3c2)cc1NS(=O)(=O)c1ccc(F)cc1F             130
1  COc1ncc(-c2ccn3ncc(C#N)c3c2)cc1NS(=O)(=O)CC(F)(F)F            20.4
2  COc1ncc(-c2ccn3ncc(C#CCO)c3c2)cc1NS(=O)(=O)c1ccc(F)cc1F            4.99
3  COc1ncc(-c2ccn3ncc(C#CC(C)O)c3n2)cc1NS(=O)(=O)c1ccc(F)cc1F (stereo not shown)            5.05
4  COc1ncc(-c2ccn3ncc(C#N)c3c2)cc1NS(=O)(=O)c1ccc(F)cc1F            40.1
5  CC#Cc1cnn2ccc(-c3cnc(OC)c(NS(=O)(=O)c4ccc(F)cc4F)c3)nc12            55.7
6  COc1ncc(-c2ccn3ncc(C#CCO)c3n2)cc1NS(=O)(=O)c1ccc(F)cc1F            11.8
